assay-system: h P2X2/3 (Homo sapiens, UniProt P56373+Q9UBL9)
Sequence (P56373 1-397): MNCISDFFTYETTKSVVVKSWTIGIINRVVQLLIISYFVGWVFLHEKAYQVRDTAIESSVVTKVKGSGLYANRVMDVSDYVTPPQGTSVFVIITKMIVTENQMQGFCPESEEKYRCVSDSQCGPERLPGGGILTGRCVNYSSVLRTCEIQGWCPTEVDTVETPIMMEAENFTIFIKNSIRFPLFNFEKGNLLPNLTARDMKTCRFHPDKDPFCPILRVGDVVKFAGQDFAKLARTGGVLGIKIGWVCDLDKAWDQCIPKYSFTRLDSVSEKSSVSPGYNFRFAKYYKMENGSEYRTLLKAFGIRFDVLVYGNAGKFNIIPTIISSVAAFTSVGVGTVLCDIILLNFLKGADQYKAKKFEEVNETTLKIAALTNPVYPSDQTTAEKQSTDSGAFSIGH
Sequence (Q9UBL9 1-471): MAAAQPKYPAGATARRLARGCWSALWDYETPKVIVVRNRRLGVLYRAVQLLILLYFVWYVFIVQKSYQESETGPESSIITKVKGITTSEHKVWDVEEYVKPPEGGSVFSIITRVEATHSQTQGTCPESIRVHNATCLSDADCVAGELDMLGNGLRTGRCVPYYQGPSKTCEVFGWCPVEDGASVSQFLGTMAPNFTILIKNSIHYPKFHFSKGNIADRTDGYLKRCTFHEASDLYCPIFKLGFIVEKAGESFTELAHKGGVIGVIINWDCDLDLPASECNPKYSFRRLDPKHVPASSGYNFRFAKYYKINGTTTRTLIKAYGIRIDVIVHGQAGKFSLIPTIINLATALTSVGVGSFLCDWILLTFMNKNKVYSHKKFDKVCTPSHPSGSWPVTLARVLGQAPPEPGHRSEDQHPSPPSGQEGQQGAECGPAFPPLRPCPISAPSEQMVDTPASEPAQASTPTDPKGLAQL
protocol-details: In vitro electrophysiology assay for P2X2/3 (same protocol, 10 μM ATP as agonist)
Format: cell-based
conditions: Table 7, range of activity
pIC50: −log10 of the molar value.
measured-attribute: pIC50

These recorded examples may help you get a feel for the data.
COc1cc(-c2ccc(F)cc2)cc2c(NC(C)c3nc(-c4ccncc4)no3)ncnc12 (single isomer, unassigned)	5.50 to 6.50
CNS(=O)(=O)c1cc(-c2ccc(F)cc2)cc2c(N[C@H](C)c3noc(C)n3)ncnc12	5.50 to 6.50
COc1cc(-c2ncc(C)cn2)cc2c(NCc3cccc(=O)[nH]3)ncnc12	4.50 to 5.50

Lab note: measured pIC50 of C[C@@H](Nc1ncnc2c(-c3ccnnc3)cc(-c3ccc(F)cc3)cc12)c1cnc(C(F)(F)F)nc1 was 4.50 to 5.50

Lab note: measured pIC50 of COc1cc(-c2ccc(F)cn2)cc2c(NCc3ccc(C)nc3)ncnc12 was 4.50 to 5.50

Lab note: measured pIC50 of COc1cc(-c2ccc(C)cn2)cc2c(NC(C)c3nnc(C)s3)ncnc12 (single isomer, unassigned) was 4.50 to 5.50

Lab note: measured pIC50 of COc1cc(-c2ccc(C)cn2)cc2c(NCc3noc(C)n3)ncnc12 was 4.50 to 5.50

Lab note: measured pIC50 of CNS(=O)(=O)c1cc(-c2ccc(F)cc2)cc2c(N[C@H](C)c3ccc(C)nn3)ncnc12 was 5.50 to 6.50

* * *

assay-system: UniProtKB P56373
Sequence (P56373 1-397): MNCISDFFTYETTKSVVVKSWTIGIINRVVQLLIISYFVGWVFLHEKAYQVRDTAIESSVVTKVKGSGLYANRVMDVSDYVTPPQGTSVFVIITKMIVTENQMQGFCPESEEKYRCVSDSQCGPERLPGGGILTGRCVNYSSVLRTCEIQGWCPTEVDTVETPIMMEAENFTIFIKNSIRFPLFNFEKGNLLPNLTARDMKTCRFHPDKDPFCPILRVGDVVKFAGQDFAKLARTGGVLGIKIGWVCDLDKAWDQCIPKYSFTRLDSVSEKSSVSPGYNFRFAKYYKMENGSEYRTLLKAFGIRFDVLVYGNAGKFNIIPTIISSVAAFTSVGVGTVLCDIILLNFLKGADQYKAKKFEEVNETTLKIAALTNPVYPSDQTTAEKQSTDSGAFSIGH
protocol-details: In vitro electrophysiology assay for P2X3 (automated whole-cell patch clamp, Sophion Qube)
Type: cell-based
conditions: Table 6; range of activity; inhibition of P2X3 current, agonist α,β-MeATP (800 nM)
Entries and their IC50 values follow.

COc1cc(-c2ccc(F)cn2)cc2c(NCc3ccc(C)nc3)ncnc12	< 316 nM
Cc1ccc(CNc2ncnc3c(OCCO)cc(-c4ncc(C)s4)cc23)nn1	< 316 nM
COc1cc(-c2ncc(C)s2)cc2c(NCc3ccc(Cl)cn3)ncnc12	< 316 nM
COc1cc(-c2ccc(F)cn2)cc2c(NCc3cc(C)on3)ncnc12	316 to 3160 nM
C[C@@H](Nc1ncnc2c(OC3CC4CC3CN4)cc(-c3ccc(F)cc3)cc12)c1cnc(C(F)(F)F)nc1 (stereo partly shown)	< 316 nM
COc1cc(-c2ncc(C)s2)cc2c(NC(C)c3noc(C)n3)ncnc12 (stereo not shown)	< 316 nM

Please look at the following compound next.
Lab note: measured IC50 of COc1cc(-c2ccc(F)cn2)cc2c(NC(C)c3ccc(C(F)(F)F)nn3)ncnc12 (single isomer, unassigned) [Example 170] was 316 to 3160 nM

* * *

assay-system: h P2X3 (Homo sapiens)
protocol-details: In vitro electrophysiology assay for P2X3 (automated whole-cell patch clamp, Sophion Qube)
Assay type: cell-based
conditions: Table 7; range of activity
pIC50: −log10 of the molar value.
measured-attribute: pIC50

These recorded examples may help you get a feel for the data.
COc1cc(-c2ncc(C)s2)cc2c(NCc3nc(C)no3)ncnc12	> 6.50
COc1cc(-c2ccc(F)cn2)cc2c(NC(C)c3ccc(C(F)(F)F)nn3)ncnc12 (single isomer, unassigned)	> 6.50
COc1cc(-c2ccc(F)cn2)cc2c(NC(C)c3nnc(C)s3)ncnc12 (single isomer, unassigned) [Example 174]	> 6.50
COc1cc(-c2ncc(C)cn2)cc2c(N[C@H](C)c3noc(C)n3)ncnc12	5.50 to 6.50
COc1cc(-c2ncc(C)cc2F)cc2c(N[C@H](C)c3noc(C)n3)ncnc12	> 6.50

Lab note: measured pIC50 of COc1cc(-c2ncc(C)cn2)cc2c(NC(C)c3ccc(C(F)(F)F)nn3)ncnc12 (single isomer, unassigned) was > 6.50

Lab note: measured pIC50 of COc1cc(-c2ncc(F)cn2)cc2c(NC(C)c3nnc(C)s3)ncnc12 (stereo not shown) was 5.50 to 6.50

* * *

assay-system: h P2X3 (Homo sapiens, UniProt P56373)
Sequence (P56373 1-397): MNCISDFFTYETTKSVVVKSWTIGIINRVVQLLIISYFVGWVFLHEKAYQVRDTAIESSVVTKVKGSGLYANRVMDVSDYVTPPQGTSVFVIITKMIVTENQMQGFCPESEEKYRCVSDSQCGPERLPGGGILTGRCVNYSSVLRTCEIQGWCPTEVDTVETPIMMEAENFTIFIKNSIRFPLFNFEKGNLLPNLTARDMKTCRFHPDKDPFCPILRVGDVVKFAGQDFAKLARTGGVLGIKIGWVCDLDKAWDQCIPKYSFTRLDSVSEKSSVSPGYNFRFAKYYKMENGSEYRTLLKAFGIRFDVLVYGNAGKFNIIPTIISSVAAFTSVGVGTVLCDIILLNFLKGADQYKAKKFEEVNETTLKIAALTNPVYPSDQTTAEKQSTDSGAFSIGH
protocol-details: In vitro electrophysiology assay for P2X3 (automated whole-cell patch clamp, Sophion Qube)
Assay type: cell-based
conditions: Table 6; range of activity; inhibition of P2X3 current, agonist α,β-MeATP (800 nM)
Procedure: Pharmacological Activity of the Compounds of the Invention In Vitro Electrophysiology Assay for P2X3 Cells expressing P2X3 receptors were grown according to standard practice and maintained at 37° C. in a 5% humidified CO2 atmosphere. […] One concentration of an antagonist was assessed against a single cell, with different concentrations of the antagonist applied to other cells on the 384 recording substrate. […]
pIC50: −log10 of the molar value.
measured-attribute: pIC50

These recorded examples may help you get a feel for the data.
COc1cc(-c2ccc(C)cn2)cc2c(NC(C)c3nnc(C)s3)ncnc12 (single isomer, unassigned) [Example 126]	4.50 to 5.50
COc1cc(-c2ncc(C)s2)cc2c(NC(C)c3nnc(C)s3)ncnc12 (single isomer, unassigned) [Example 165]	> 6.50
Cc1ccc(CNc2ncnc3c(OC4CCOCC4)cc(-c4ncc(C)s4)cc23)nn1	5.50 to 6.50

Lab note: measured pIC50 of COc1cc(C2=CCOCC2)cc2c(NCc3ccc(C)nn3)ncnc12 was 4.50 to 5.50

Lab note: measured pIC50 of COc1cc(-n2cc(F)cn2)cc2c(N[C@H](C)c3ccc(C)nn3)ncnc12 was 5.50 to 6.50

Lab note: measured pIC50 of COc1cc(-c2ccc(F)cn2)cc2c(NCc3ccc(C(F)(F)F)nc3)ncnc12 was > 6.50

Lab note: measured pIC50 of C[C@@H](Nc1ncnc2c(-c3cncnc3)cc(-c3ccc(F)cc3)cc12)c1cnc(C(F)(F)F)nc1 was > 6.50

Lab note: measured pIC50 of COc1cc(-c2ccc(C)cn2)cc2c(NCc3ccn(C)n3)ncnc12 was 5.50 to 6.50
